Known SPOT peptide array binding signal intensity of a selection of binders
# Measurement Target: AgSla1-D3
# Run Description: SPOT peptide array binding signal intensity (averaged, normalized) (arbitrary units (background-subtracted, floor 0; scale differs between SH3 domains)); higher = stronger binding of the SH3 domain to the peptide
Metric: SPOT peptide array binding signal intensity

Binder: LLIRWLILMPLVGSR
Assay Result: 5
//
Binder: ISNFVPPNLPMRRFK
Assay Result: 3
//
Binder: APPPPPRRATPEKKP
Assay Result: 1.5
//
Binder: RSLRKRPTSPSISGS
Assay Result: 3.5
//
Binder: PLRRTVMSLPGNHDI
Assay Result: 6
//
Binder: HRRRRVFSIPSLKSI
Assay Result: 11
//
Binder: KRRAPPPVPKKPSSR
Assay Result: 1230
